test: Plasma protein binding (Centrifree ultrafiltration)
Format: in vitro ADME
experimental.setup: 0.1 uM
Positions of bridges follow the written chain, without caps; N, C: chain ends. Non-standard residues stand in square brackets, D forms with d. Residues, ends and D or L forms follow the SMILES beside them. dPhe(4-Br) = N[C@H](Cc1ccc(Br)cc1)C(=O)O; Nle = CCCC[C@H](N)C(=O)O; Aib = CC(C)(N)C(=O)O
observed.property: fraction unbound at 5 min, 0.1 µM
// no unit string in output, number only

{"molecule": "CC(=O)N[C@@H](CCCNC(=N)N)C(=O)N[C@H]1CSSC[C@@H](C(N)=O)NC(=O)[C@@H](Cc2c[nH]c3ccccc23)NC(=O)[C@H](CCCNC(=N)N)NC(=O)[C@@H](Cc2ccc(Br)cc2)NC(=O)[C@H](CCCNC(=N)N)NC(=O)C(C)(C)NC1=O [CTX-1246] (Ac-RC[Aib]R[dPhe(4-Br)]R[dW]C-NH2; disulfide 2-8 (inferred))", "quantitative.result": 0.27}

Now examine the next entry.
Q. Find the recorded fraction unbound at 5 min, 0.1 µM belonging to CCCC[C@H](NC(=O)[C@H](CCCNC(=N)N)NC(C)=O)C(=O)N[C@H]1CSSC[C@@H](C(N)=O)NC(=O)[C@H](Cc2c[nH]c3ccccc23)NC(=O)[C@H](CCCNC(=N)N)NC(=O)[C@@H](Cc2ccccc2)NC(=O)[C@H](Cc2c[nH]cn2)NC1=O [CTX-1227, Arg-Nle-cyclo(Cys-His-D-Phe-Arg-Trp-Cys)] (Ac-R[Nle]CH[dF]RWC-NH2; disulfide 3-8 (inferred)) and report it.
A. 0.5

###

experimental.target: human MC1R (Homo sapiens, UniProt Q01726)
Construct: expressed in transfected cells; host or cells: HEK-293 cells stably expressing hMC1R and the GScAMP22F cAMP sensor
Sequence (Q01726 whole entry): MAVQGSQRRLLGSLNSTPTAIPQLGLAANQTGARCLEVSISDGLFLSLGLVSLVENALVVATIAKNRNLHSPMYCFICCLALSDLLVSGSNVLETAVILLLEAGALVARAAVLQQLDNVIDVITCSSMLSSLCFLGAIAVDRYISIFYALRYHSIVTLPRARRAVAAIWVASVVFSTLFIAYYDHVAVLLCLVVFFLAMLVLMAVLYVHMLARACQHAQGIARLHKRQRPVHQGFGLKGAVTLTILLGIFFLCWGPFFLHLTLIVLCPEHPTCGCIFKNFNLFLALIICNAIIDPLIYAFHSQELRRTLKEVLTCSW
test: split-luciferase cAMP sensor assay, agonist mode, hMC1R
Format: cell-based
experimental.setup: MC4R versus MC1R
Positions of bridges follow the written chain, without caps; N, C: chain ends. Non-standard residues stand in square brackets, D forms with d. Residues, ends and D or L forms follow the SMILES beside them. NMeR = CN[C@@H](CCCNC(=N)N)C(=O)O; Cit = NC(=O)NCCC[C@H](N)C(=O)O; Nle = CCCC[C@H](N)C(=O)O; Aib = CC(C)(N)C(=O)O
Exam item: assign met to entries whose MC4R selectivity vs MC1R is below 2 and not met to entries at or above 2. Note that a value of exactly 2 receives not met.

Examples with answers:
{"compound": "CC(=O)N[C@@H](CCCNC(=N)N)C(=O)N[C@H]1CSSC[C@@H](C(N)=O)NC(=O)[C@H](Cc2c[nH]c3ccccc23)NC(=O)[C@H](CCCNC(N)=O)NC(=O)[C@@H](Cc2ccccc2)NC(=O)[C@H](CCCNC(=N)N)NC(=O)C(C)(C)NC1=O [CTX-1270, Arg-cyclo(Cys-Aib-Arg-D-Phe-Cit-Trp-Cys)] (Ac-RC[Aib]R[dF][Cit]WC-NH2; disulfide 2-8)", "class.name": "not met"}
{"compound": "CC(=O)N[C@@H](CCCNC(=N)N)C(=O)N[C@H]1CSSC[C@@H](C(N)=O)NC(=O)[C@@H](Cc2c[nH]c3ccccc23)NC(=O)[C@H](CCCNC(=N)N)N(C)C(=O)[C@@H](Cc2ccccc2)NC(=O)[C@H](CCCNC(=N)N)NC(=O)[C@@H](C)NC1=O [CTX-1284] (Ac-RC[dA]R[dF][NMeR][dW]C-NH2; disulfide 2-8)", "class.name": "met"}
{"compound": "CCCC[C@H](NC(=O)[C@H](CCCNC(=N)N)NC(C)=O)C(=O)N[C@H]1CSSC[C@@H](C(N)=O)NC(=O)[C@@H](Cc2c[nH]c3ccccc23)NC(=O)[C@H](CCCNC(=N)N)NC(=O)[C@@H](Cc2ccccc2)NC(=O)[C@H](CCCNC(N)=O)NC1=O [CTX-1608] (Ac-R[Nle]C[Cit][dF]R[dW]C-NH2; disulfide 3-8 (inferred))", "class.name": "not met"}
{"compound": "C[C@H]1NC(=O)CSC[C@@H](C(N)=O)NC(=O)[C@H](Cc2c[nH]c3ccccc23)NC(=O)[C@H](CCCNC(=N)N)NC(=O)[C@@H](Cc2ccccc2)NC(=O)[C@H](CCCNC(=N)N)NC1=O [CTX-1642] ({CH2CO}-[dA]R[dF]RWC-NH2; thioether N-6)", "class.name": "not met"}

Q. State whether 2 exceeds MC4R selectivity vs MC1R recorded for CC(=O)N[C@H]1CSSC[C@@H](C(N)=O)NC(=O)[C@H](Cc2ccccc2)NC(=O)[C@H](CCCNC(=N)N)NC(=O)[C@@H](Cc2ccccc2)NC(=O)[C@H](Cc2c[nH]cn2)NC(=O)C(C)(C)NC1=O [CTX-1634, cyclo(Cys-Aib-His-D-Phe-Arg-Phe-Cys)] (Ac-C[Aib]H[dF]RFC-NH2; disulfide 1-7 (inferred)) .
A. not met

Q. Item: N=C(N)NCCC[C@@H]1NC(=O)CNC(=O)CSC[C@@H](C(N)=O)NC(=O)[C@H](Cc2ccccc2)NC(=O)[C@H](CCCNC(=N)N)NC(=O)[C@@H](Cc2ccccc2)NC1=O [CTX-1654] ({CH2CO}-GR[dF]RFC-NH2; thioether N-6)
A. met

###

Listing: Emax of selected compounds
experimental.target: human MC3R (Homo sapiens, UniProt P41968)
Construct: expressed in transfected cells; host or cells: HEK-293 cells stably expressing the GScAMP22F split-luciferase cAMP sensor (parent reporter line from Promega); MC3R clone generated in-house, G418 selection
Sequence (P41968 whole entry): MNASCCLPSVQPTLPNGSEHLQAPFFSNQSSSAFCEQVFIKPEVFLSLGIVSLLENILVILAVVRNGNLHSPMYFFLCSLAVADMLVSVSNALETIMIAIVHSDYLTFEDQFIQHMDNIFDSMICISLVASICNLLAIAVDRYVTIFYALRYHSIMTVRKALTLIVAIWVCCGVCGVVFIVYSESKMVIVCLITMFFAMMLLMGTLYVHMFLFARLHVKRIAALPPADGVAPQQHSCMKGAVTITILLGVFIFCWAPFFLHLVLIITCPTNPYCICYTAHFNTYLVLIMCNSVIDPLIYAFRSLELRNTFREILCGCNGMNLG
test: split-luciferase cAMP sensor assay, agonist mode (measurement window 1), hMC3R
Assay type: cell-based
experimental.setup: agonist mode, hMC3R stable cell line; read-out: MC3R cAMP % max activation
Positions of bridges follow the written chain, without caps; N, C: chain ends. Non-standard residues stand in square brackets, D forms with d. Residues, ends and D or L forms follow the SMILES beside them. dBip = N[C@H](Cc1ccc(-c2ccccc2)cc1)C(=O)O; dPhe(4-Br) = N[C@H](Cc1ccc(Br)cc1)C(=O)O; NMeR = CN[C@@H](CCCNC(=N)N)C(=O)O; Cit = NC(=O)NCCC[C@H](N)C(=O)O; Aib = CC(C)(N)C(=O)O
Give the value, in units of %, as a plain number.

{"compound": "CC(=O)N[C@@H](CCCNC(=N)N)C(=O)N[C@H]1CSSC[C@@H](C(N)=O)NC(=O)[C@@H](Cc2c[nH]c3ccccc23)NC(=O)[C@H](CCCNC(=N)N)NC(=O)[C@@H](Cc2ccc(-c3ccccc3)cc2)NC(=O)[C@H](CCCNC(=N)N)NC(=O)[C@@H](C)NC1=O [CTX-1243] (Ac-RC[dA]R[dBip]R[dW]C-NH2; disulfide 2-8 (inferred))", "experimental.target": "human MC3R (Homo sapiens, UniProt P41968)", "Emax, %": 7.7}

Q. I'd like to know its Emax. The compound in question is CC(=O)N[C@@H](CCCNC(=N)N)C(=O)N[C@H]1CSSC[C@@H](C(N)=O)NC(=O)[C@@H](Cc2c[nH]c3ccccc23)NC(=O)[C@H](CCCNC(=N)N)N(C)C(=O)[C@@H](Cc2ccc(Br)cc2)NC(=O)[C@H](CCCNC(=N)N)NC(=O)[C@@H](C)NC1=O [CTX-1251] (Ac-RC[dA]R[dPhe(4-Br)][NMeR][dW]C-NH2; disulfide 2-8)
A. 30

Q. Ok, now CC(=O)N[C@@H](CCCNC(=N)N)C(=O)N[C@H]1CSSC[C@@H](C(N)=O)NC(=O)[C@@H](Cc2c[nH]c3ccccc23)NC(=O)[C@H](CCCNC(N)=O)NC(=O)[C@@H](Cc2ccccc2)NC(=O)[C@H](CCCNC(=N)N)NC(=O)C(C)(C)NC1=O [CTX-1271] (Ac-RC[Aib]R[dF][Cit][dW]C-NH2; disulfide 2-8 (inferred))
A. 16

###

experimental.target: human MC3R (Homo sapiens, UniProt P41968)
Construct: expressed in transfected cells; host or cells: HEK-293 cells stably expressing the GScAMP22F split-luciferase cAMP sensor (parent reporter line from Promega); MC3R clone generated in-house, G418 selection
test: split-luciferase cAMP sensor assay, agonist mode (measurement window 1), hMC3R
Assay type: cell-based
experimental.setup: % maximal activation, agonist mode; read-out: MC3R cAMP % max activation
Positions of bridges follow the written chain, without caps; N, C: chain ends. Non-standard residues stand in square brackets, D forms with d. Residues, ends and D or L forms follow the SMILES beside them. d(αMeF) = C[C@@](N)(Cc1ccccc1)C(=O)O; Cit = NC(=O)NCCC[C@H](N)C(=O)O; Nle = CCCC[C@H](N)C(=O)O
observed.property: Emax (%)
Give just the numeric value; % need not be written.

# example entries with known answers
{"compound": "N=C(N)NCCC[C@@H]1NC(=O)[C@@H](Cc2ccccc2)NC(=O)[C@H](Cc2c[nH]cn2)NC(=O)CNC(=O)CSC[C@@H](C(N)=O)NC(=O)[C@H](Cc2c[nH]c3ccccc23)NC1=O [CTX-1644] ({CH2CO}-GH[dF]RWC-NH2; thioether N-6)", "quantitative.result": 107}
{"compound": "CCCC[C@H](NC(=O)[C@H](CCCNC(=N)N)NC(C)=O)C(=O)N[C@H]1CSSC[C@@H](C(N)=O)NC(=O)[C@H](Cc2c[nH]c3ccccc23)NC(=O)[C@H](CCCNC(=N)N)NC(=O)[C@@H](Cc2ccccc2)NC(=O)[C@H](CCCNC(N)=O)NC1=O [CTX-1607, Arg-Nle-cyclo(Cys-Cit-D-Phe-Arg-Trp-Cys)] (Ac-R[Nle]C[Cit][dF]RWC-NH2; disulfide 3-8 (inferred))", "quantitative.result": 47}

Q. Entry CC(=O)N[C@@H](CCCNC(=N)N)C(=O)N[C@H]1CSSC[C@@H](C(N)=O)NC(=O)[C@H](Cc2c[nH]c3ccccc23)NC(=O)[C@H](CCCNC(=N)N)NC(=O)[C@@](C)(Cc2ccccc2)NC(=O)[C@H](CCCNC(=N)N)NC(=O)[C@@H](C)NC1=O [CTX-1278] (Ac-RC[dA]R[d(αMeF)]RWC-NH2; disulfide 2-8 (inferred)) , system human MC3R (Homo sapiens, UniProt P41968): what Emax was measured?
A. 86

Provenance of the data: patent US20240391954A1
